# Test system: poly-L-lysine (PLL, 30-70 kDa, Sigma P2636)
# PROTOCOL TEXT: EMSA
# CONDITIONS USED: 10 mM Tris pH 7.5, 100 mM KCl, 5% glycerol, 30 min at room temperature
PROPERTY LABEL: Kd (nM)

>>> result_number("TTAGAATTAGAATTAGAATTAGAA [dTERRA_M2 [TTAGAA]4]")
34
>>> result_number("UUAGAAUUAGAAUUAGAAUUAGAA [rTERRA_M2 [UUAGAA]4]")
7.4
